- TARGET: T1, Human CD3εδ Fc heterodimer (Hu CD3ε Fc + CD3δ Fc-HIS) (human, UniProt P07766 22-126; P04234 22-100)
- T1 construct: range 22-126;range 22-100; Made in HEK 293 cells with a heterologous signal peptide; also called Hu CD3εδ-Fc; CD3εδ Fc-HIS heterodimer; not shown: Fc; Fc followed by HIS tag
- T1 sequence (P07766 22-126, stated change not applied, form in doubt, chain 1 of 2): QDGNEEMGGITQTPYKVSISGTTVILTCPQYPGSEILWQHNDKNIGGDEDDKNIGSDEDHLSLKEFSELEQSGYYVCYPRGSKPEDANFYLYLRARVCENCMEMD
- T1 sequence (P04234 22-100, stated change not applied, form in doubt, chain 2 of 2): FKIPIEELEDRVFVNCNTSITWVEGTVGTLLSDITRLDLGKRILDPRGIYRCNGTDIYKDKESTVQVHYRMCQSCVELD
- RUN_DESCRIPTION: BLI (Octet), CD3εδ Fc on AHC sensor, 100 nM Fab
pKd: −log10 of the molar value.
Listing of recorded pKd by entry.

| BINDER | pKd |
| --- | --- |
| Antibody No. V006 (ADI-67449) Fab (Fab, V domains shown, Fab by papain digestion of the IgG1) VH: QVQLVQSGAEVKKPGASVKVSCKASGFNDKDYYMHWVRQAPGQRLEWMGWIDLENAETIYDAKFQDRVTITRDTSASTAYMELSSLRSEDTAVYYCARDAYGRYFYDVWGQGTLVTVSS VL: DIVMTQSPDSLAVSLGERATINCKSSQSLLNARTGKNYLAWYQQKPGQPPKLLIYWASTRESGVPDRFSGSGSGTDFTLTISSLQAEDVAVYYCKQSYSRRTFGGGTKVEIK | 8.10 |
| Antibody No. V013 (ADI-70330) Fab (Fab, V domains shown, Fab by papain digestion of the IgG1) VH: QVQLVQSGAEVKKPGASVKVSCKASGFNIDDYYMHWVRQAPGQRLEWIGWIDLENANTVDDAKFQGRVTITRDTSASTAYMELSSLRSEDTAVYYCARDAYGRYFYDVWGQGTLVTVSS VL: DIVMSQSPDSLAVSLGERATINCKSSQSLLNARTGKNYLAWYQQKPGQPPKLLIYWASTRSSGVPDRFSGSGSGTDFTLTISSLQAEDVAVYYCVQSYFRRTFGGGTKVEIK | 8.94 |
| Antibody No. A001 (ADI-26906) Fab (Fab, V domains shown, Fab by papain digestion of the IgG1) VH: QVQLVQSGAEVKKPGASVKVSCKASGFNIKDYYMHWVRQAPGQRLEWMGWIDLENANTIYDAKFQGRVTITRDTSASTAYMELSSLRSEDTAVYYCARDAYGRYFYDVWGQGTLVTVSS VL: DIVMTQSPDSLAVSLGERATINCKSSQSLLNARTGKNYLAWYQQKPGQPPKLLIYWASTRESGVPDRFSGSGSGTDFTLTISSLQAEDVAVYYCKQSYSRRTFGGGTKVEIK | 8.55 |

Numbers sourced from patent US20240317858A1.
